- TARGET_OR_SYSTEM: HIV-1 WT RT (Human immunodeficiency virus type 1 group M subtype B)
- Construct: purified RT protein (0.015 mg/mL) was incubated in a 100 µL reaction mixture
- RUN_DESCRIPTION: biochemical
- CONDITIONS: WT RT; read-out: IC50

{"COMPOUND_STRUCTURE_STRING": "COc1cccc2c1nc(-c1c(F)cccc1F)n2Cc1c(F)cccc1F", "IC50 / nM": 7.3}
{"COMPOUND_STRUCTURE_STRING": "Cc1cccc2c1nc(-c1c(F)cccc1F)n2Cc1c(F)cccc1F", "IC50 / nM": 200}

====

- Tested on: HIV-1 variant A98G
- RUN_DESCRIPTION: Cytopathic cell killing assay, cross-resistance profile, infected MT-4 cells
- Format: cell-based
- CONDITIONS: Human immunodeficiency virus 1, MT4
READOUT_KIND: EC50 (µM)

{"COMPOUND_STRUCTURE_STRING": "CCc1cccc2c1nc(-c1c(F)cccc1F)n2Cc1c(F)cccc1F", "TARGET_OR_SYSTEM": "HIV-1 variant A98G", "ASSAY_RESULT": 8}

====

- Test system: HIV-1 variant Y181C
- RUN_DESCRIPTION: Cytopathic cell killing assay, cross-resistance profile, infected MT-4 cells
- Assay type: cell-based
- CONDITIONS: Human immunodeficiency virus 1, MT4, Table 4; isolate Y181C
pEC50: −log10 of the molar value.

{"MOLECULE": "Fc1cccc(F)c1C1SCc2nc3ccccc3n21 (stereo not shown) [TZB, reference compound]", "pEC50": 4.79}
{"MOLECULE": "Fc1cccc(F)c1Cn1c(-c2c(F)cccc2F)nc2ccccc21", "pEC50": 4.82}
{"MOLECULE": "Cc1cccc2c1nc(-c1c(F)cccc1F)n2Cc1c(F)cccc1F", "pEC50": 5.22}
{"MOLECULE": "CC1Cn2c(=O)[nH]c3cccc(c32)CN1 (stereo not shown) [TIBO, reference compound]", "pEC50": 5.38}

====

- System: HIV-1 variant K101E
- RUN_DESCRIPTION: Cytopathic cell killing assay, cross-resistance profile, infected MT-4 cells
- Assay type: cell-based
- CONDITIONS: Human immunodeficiency virus 1, MT4, Table 9; isolate KIOIE
READOUT_KIND: EC50

{"COMPOUND": "Cc1ccnc2c1NC(=O)c1cccnc1N2C1CC1 [nevirapine, reference compound]", "READOUT_KIND": "EC50", "ASSAY_RESULT": "1.1 µM"}
{"COMPOUND": "CC(C)=CCn1c(-c2c(F)cccc2F)nc2c(C)cccc21", "READOUT_KIND": "EC50", "ASSAY_RESULT": "> 20 µM"}
{"COMPOUND": "CC1Cn2c(=O)[nH]c3cccc(c32)CN1 (stereo not drawn) [TIBO, reference compound]", "READOUT_KIND": "EC50", "ASSAY_RESULT": "> 10 µM"}
{"COMPOUND": "Fc1cccc(F)c1C1SCc2nc3ccccc3n21 (stereo not drawn) [TZB, reference compound]", "READOUT_KIND": "EC50", "ASSAY_RESULT": "> 10 µM"}
{"COMPOUND": "Fc1cccc(F)c1Cn1c(-c2c(F)cccc2F)nc2ccccc21", "READOUT_KIND": "EC50", "ASSAY_RESULT": "> 20 µM"}
{"COMPOUND": "Cc1cccc2c1nc(-c1c(F)cccc1F)n2Cc1c(F)cccc1F", "READOUT_KIND": "EC50", "ASSAY_RESULT": "> 10 µM"}

====

- Tested on: HIV-1 isolate 4xAZT
- RUN_DESCRIPTION: Cytopathic cell killing assay, cross-resistance profile, infected MT-4 cells
- Type: cell-based
- CONDITIONS: Human immunodeficiency virus 1, MT4, Table 8; isolate 4XAZT
Documented EC50 across a set of compounds
READOUT_KIND: EC50 (µM)

{"COMPOUND": "Cc1cccc2c1nc(-c1c(F)cccc1F)n2Cc1c(F)cccc1F", "READOUT_KIND": "EC50", "RELATION_OPERATOR": "=", "ASSAY_RESULT": 0.1}
{"COMPOUND": "Fc1cccc(F)c1C1SCc2nc3ccccc3n21 (stereo not shown) [TZB, reference compound]", "READOUT_KIND": "EC50", "RELATION_OPERATOR": "=", "ASSAY_RESULT": 1.1}
{"COMPOUND": "CC(=O)N(C)c1cccc2c1nc(-c1c(F)cccc1F)n2Cc1c(F)cccc1F", "READOUT_KIND": "EC50", "RELATION_OPERATOR": ">", "ASSAY_RESULT": 10}
{"COMPOUND": "Cc1ccnc2c1NC(=O)c1cccnc1N2C1CC1 [nevirapine, reference compound]", "READOUT_KIND": "EC50", "RELATION_OPERATOR": ">", "ASSAY_RESULT": 0.5}
{"COMPOUND": "CNc1cccc2c1nc(-c1c(F)cccc1F)n2Cc1c(F)cccc1F", "READOUT_KIND": "EC50", "RELATION_OPERATOR": ">", "ASSAY_RESULT": 10}
{"COMPOUND": "Fc1cccc(F)c1Cn1c(-c2c(F)cccc2F)nc2c(Cl)cccc21", "READOUT_KIND": "EC50", "RELATION_OPERATOR": "=", "ASSAY_RESULT": 0.2}
{"COMPOUND": "COc1cccc2c1nc(-c1c(F)cccc1F)n2Cc1c(F)cccc1F", "READOUT_KIND": "EC50", "RELATION_OPERATOR": "=", "ASSAY_RESULT": 6}

====

- TARGET_OR_SYSTEM: HIV-1 WT RT (Human immunodeficiency virus type 1 group M subtype B, UniProt P03366)
- Construct: purified RT protein (0.015 mg/mL) was incubated in a 100 µL reaction mixture
- RUN_DESCRIPTION: biochemical
- CONDITIONS: Table 7; HIV-1 WT RT; read-out: IC50
READOUT_KIND: IC50 (µM)

{"MOLECULE": "COc1cccc2c1nc(-c1c(F)cccc1F)n2Cc1c(F)cccc1F [compound 44]", "DISPLAY_UNIT": "µM", "ASSAY_RESULT": 0.0073}
{"MOLECULE": "Fc1cccc(F)c1Cn1c(-c2c(F)cccc2F)nc2c(Br)cccc21 [compound 54]", "DISPLAY_UNIT": "µM", "ASSAY_RESULT": 1.61}
{"MOLECULE": "CN(C)c1cccc2c1nc(-c1c(F)cccc1F)n2Cc1c(F)cccc1F [compound 59]", "DISPLAY_UNIT": "µM", "ASSAY_RESULT": 40}
{"MOLECULE": "Cc1cccc2c1nc(-c1c(F)cccc1F)n2Cc1c(F)cccc1F [compound 33]", "DISPLAY_UNIT": "µM", "ASSAY_RESULT": 0.2}
{"MOLECULE": "Fc1cccc(F)c1Cn1c(-c2c(F)cccc2F)nc2c(Cl)cccc21 [compound 55]", "DISPLAY_UNIT": "µM", "ASSAY_RESULT": 2.63}
{"MOLECULE": "O=[N+]([O-])c1cccc2c1nc(-c1c(F)cccc1F)n2Cc1c(F)cccc1F [compound 48]", "DISPLAY_UNIT": "µM", "ASSAY_RESULT": 1.88}

====

- Tested on: HIV-1 variant K103N
- RUN_DESCRIPTION: Cytopathic cell killing assay, cross-resistance profile, infected MT-4 cells
- Type: cell-based
- CONDITIONS: Human immunodeficiency virus 1, MT4, Table 4; isolate K103N
pEC50: −log10 of the molar value.
READOUT_KIND: pEC50

{"COMPOUND": "Fc1cccc(F)c1C1SCc2nc3ccccc3n21 (stereo not shown) [TZB, reference compound]", "RELATION_OPERATOR": "<", "ASSAY_RESULT": 4.70}
{"COMPOUND": "CC1Cn2c(=O)[nH]c3cccc(c32)CN1 (stereo not shown) [TIBO, reference compound]", "RELATION_OPERATOR": "=", "ASSAY_RESULT": 4.76}
{"COMPOUND": "Fc1cccc(F)c1Cn1c(-c2c(F)cccc2F)nc2ccccc21 [compound 26]", "RELATION_OPERATOR": "=", "ASSAY_RESULT": 4.89}
{"COMPOUND": "Cc1cccc2c1nc(-c1c(F)cccc1F)n2Cc1c(F)cccc1F [compound 33]", "RELATION_OPERATOR": "=", "ASSAY_RESULT": 5.09}

====

Documented inhibition at 10 µM across a set of compounds
- TARGET_OR_SYSTEM: HIV-1 WT RT (Human immunodeficiency virus type 1 group M subtype B)
- Construct: purified RT protein (0.015 mg/mL) was incubated in a 100 µL reaction mixture
- RUN_DESCRIPTION: biochemical
- CONDITIONS: Table 1; WT RT, 10 µM drug concentration; read-out: %inhibn (10µM)
READOUT_KIND: inhibition at 10 µM (%)

{"COMPOUND": "Cc1cccc2c1nc(-c1cccc3ccccc13)n2Cc1c(F)cccc1F [compound 37]", "TARGET_OR_SYSTEM": "HIV-1 WT RT (Human immunodeficiency virus type 1 group M subtype B)", "READOUT_KIND": "inhibition at 10 µM", "ASSAY_RESULT": 2}
{"COMPOUND": "Cc1cccc2c1nc(-c1c(F)cccc1F)n2Cc1c(F)cccc1F [compound 33]", "TARGET_OR_SYSTEM": "HIV-1 WT RT (Human immunodeficiency virus type 1 group M subtype B)", "READOUT_KIND": "inhibition at 10 µM", "ASSAY_RESULT": 92}
{"COMPOUND": "Fc1cccc(F)c1C1SCc2nc3ccccc3n21 (stereo not drawn) [TZB, reference compound]", "TARGET_OR_SYSTEM": "HIV-1 WT RT (Human immunodeficiency virus type 1 group M subtype B)", "READOUT_KIND": "inhibition at 10 µM", "ASSAY_RESULT": 84}
{"COMPOUND": "Fc1cccc(F)c1Cn1c(-c2c(F)cccc2F)nc2ccccc21 [compound 26]", "TARGET_OR_SYSTEM": "HIV-1 WT RT (Human immunodeficiency virus type 1 group M subtype B)", "READOUT_KIND": "inhibition at 10 µM", "ASSAY_RESULT": 93}
{"COMPOUND": "Cc1cccc2c1nc(-c1ccc(C#N)cc1)n2Cc1c(F)cccc1F [compound 4007]", "TARGET_OR_SYSTEM": "HIV-1 WT RT (Human immunodeficiency virus type 1 group M subtype B)", "READOUT_KIND": "inhibition at 10 µM", "ASSAY_RESULT": 26}
{"COMPOUND": "Cc1ccccc1-c1nc2ccccc2n1Cc1c(F)cccc1F [compound 36]", "TARGET_OR_SYSTEM": "HIV-1 WT RT (Human immunodeficiency virus type 1 group M subtype B)", "READOUT_KIND": "inhibition at 10 µM", "ASSAY_RESULT": 71}
